growth values by entry
Test system: K-562 leukemia
protocol: NCI-60 one-dose screen, 48 h (100 = growth as untreated, 0 = no growth, -100 = all killed)
details: 10 µM unless noted
About 83,000 compounds went through this panel and 20% of them were active in at least one assay; those are over-represented in the sample as a whole.
measureName: growth (%)

compound="CCCC1CCCCN1C(=O)OCC(C)C (configuration not stated)" experimentaltarget="K-562 leukemia" measurename=growth measurednumber=103
compound="Nc1c2c(nc3ccc(Cl)cc13)CC(c1ccccc1)CC2=O (configuration not stated)" experimentaltarget="K-562 leukemia" measurename=growth measurednumber=18
compound=O=C(N/N=C/c1ccccc1SSc1ccccc1/C=N/NC(=O)c1ccccc1)c1ccccc1 experimentaltarget="K-562 leukemia" measurename=growth measurednumber=18.3
compound=COc1ccc(C2(Cl)c3ccccc3N(c3ccccc3)c3ccccc32)cc1 experimentaltarget="K-562 leukemia" measurename=growth measurednumber=8.99
compound=Cc1ccc(S(=O)(=O)Nc2ccc(-c3cc(-c4cccc(F)c4)c(C#N)c(N)n3)cc2)cc1 experimentaltarget="K-562 leukemia" measurename=growth measurednumber=2.53
compound=NC1=NN=C2N(N)C(=O)c3cnn(-c4ccccc4)c3N2c2nc(-c3ccccc3)cc(-c3ccccc3)c21 experimentaltarget="K-562 leukemia" measurename=growth measurednumber=92.9
compound="c1ccc(C2Cc3ccccc3C2=NC2CCCCC2)cc1 (configuration not stated)" experimentaltarget="K-562 leukemia" measurename=growth measurednumber=99.6
